Values compiled from PubChem BioAssay.

Target: Calmodulin-1 (Homo sapiens) (UniProt P0DP23)
Assay: CALM1 binders on microarrays, EGTA buffer, profiling panel, biochemical, small-molecule microarray, Cy5-labelled CALM1 (AID 1111);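 also: labelled calmodulin applied in Tris saline Tween buffer holding calcium plus EGTA and DTT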
Conditions: Cy5-CALM1 binding fluorescence, higher = more signal
measured.quantity: composite z-score

# annotated cases, reported composite z-score shown
COc1ccc([Si](C)(C)[C@H]2[C@H](CCn3cc([C@H](O)c4ccccc4)nn3)O[C@@]3(C(=O)N(Cc4cccc(N5CCOC5=O)c4)c4ccccc43)[C@@H]2C)cc1    0.0776
COc1ccc(C(O)C2C=CC3C(=O)N(c4ccccc4)C(=O)C3N2Nc2ccc(C(C)C)cc2)cc1OCc1ccccc1 (stereo unspecified)    2.13
O=C1O[C@@H](c2ccccc2)[C@@H](c2ccccc2)N2[C@@H](c3ccc(OCCO)cc3)[C@]3(C(=O)Nc4ccccc43)[C@@H](C(=O)NC[C@H](O)c3ccccc3)[C@H]12    0.158
CC1CC/C=C\[C@H]2OC34C=CCN(C(C)(C)C)C(=O)[C@H]3N(CCCCCCO)C(=O)[C@@H]4C2C(=O)O1 (stereo partly specified)    -0.0234
Cc1ccc(S[C@]2(C(=O)NC3CC3)CC(=O)N(C3Cc4ccccc4C3)[C@@H]2c2ccc(CO)cc2)cc1    -0.0137

The compound listed as `C=CCOC(=O)[C@@H]1[C@H]2C(=O)O[C@H](c3ccccc3)[C@H](c3ccccc3)N2[C@H](c2ccc(OCCOC(=O)[C@@H]3C[C@@H]4C(=O)N[C@@H](Cc5ccccc5)C(=O)N4[C@@H]3c3ccc(O)cc3)cc2)[C@@]12C(=O)Nc1ccc(I)cc12` has a reported composite z-score of 0.75

Item: `CCc1oc(CC[C@@H](CO)NC(=O)NCCn2cc(C3(O)CCCCC3)nn2)c(C(=O)OC)c1C(=O)OC` | composite z-score: -0.22

For `COCCCNC(=O)[C@@]1(Cc2ccccc2N=[N+]=[N-])N=C(c2ccc(OCCCO)cc2)O[C@H]1c1ccccc1N=[N+]=[N-]` the compound record lists composite z-score as 1.72

Item: `C=CC[C@@]1(C(N)=O)N=C(c2ccc(OCCCO)cc2)O[C@@H]1c1ccccc1CN=[N+]=[N-]` | composite z-score: 1.64

Lab note: measured composite z-score of `[N-]=[N+]=NCc1ccccc1[C@@H]1OC(c2ccc(OCCCO)cc2)=N[C@]1(CCS(=O)(=O)c1ccccc1)C(=O)NCc1ccccc1` was 1.02

Reported composite z-score of `O=C1O[C@H](c2ccccc2)[C@H](c2ccccc2)N2[C@H]1[C@@H](C(=O)Nc1nc3ccccc3s1)[C@]1(C(=O)Nc3ccc(C#CC4(O)CCCCCC4)cc31)[C@H]2c1ccc(OCCO)cc1` : 1.91

Quick note, composite z-score for `COCCOC(=O)N1C(=O)[C@@]2(c3cc(C#Cc4ccc(OC)cc4)ccc31)[C@H](c1ccc(O)cc1)N1[C@H](c3ccccc3)[C@H](c3ccccc3)OC(=O)[C@H]1[C@@H]2C(=O)NC[C@H](O)c1ccccc1` landed at 1.18

Record CC(C)(C)OC(=O)CC[C@@]1(C(=O)NCC(O)CO)N=C(c2ccc(OCCCO)cc2)O[C@@H]1c1ccccc1N=[N+]=[N-] (stereo partly specified) . Reported composite z-score: 1.67

Looking up C=CCC(OC(C)=O)[C@@H]1[C@@H](N(Cc2ccc(-c3cccc(C(F)(F)F)c3)o2)C(=O)c2ccc(-c3ccccc3)cc2)c2cc(OCCCO)ccc2N1C(=O)c1ccc(-c2ccccc2)cc1 (stereo partly specified) , I see its composite z-score listed as -0.104

Summary for this compound, CC(C)C[C@H]1NC(=O)[C@@]23C(=O)N[C@@H](Cc4ccccc4)C2[C@H](C)[C@@]2(C)O[C@H]2C3/C=C/C/C=C\CNC(=O)[C@H](Cc2ccccc2)NC1=O (stereo partly specified) : composite z-score is -0.434

// recorded composite z-score for CN1C(=O)C2C=CC(C(O)c3cccs3)N(Nc3ccccc3)C2C1=O (stereo unspecified) : 0.041

`C[C@]1(C(=O)NC2CC2)c2ccccc2C(=O)N(Cc2cc(C(F)(F)F)cc(C(F)(F)F)c2)[C@H]1c1ccc(CO)cc1` has a reported composite z-score of 0.224

Entry CN1C(=O)C2C=CC(C(O)c3ccc(-c4ccccc4)s3)N(N(c3ccccc3)c3ccccc3)C2C1=O (stereo unspecified) — recorded composite z-score = 0.906

Input `C=C(CCCC)C(=O)CC[C@H](OC(C)=O)c1cccc(OCCO)c1` . Output composite z-score: -0.687

Documented composite z-score of `Cc1ccc(S[C@]2(C(=O)NC(C)C)CC(=O)N(Cc3ccccc3Cl)[C@@H]2c2ccc(CO)cc2I)cc1` : 0.0453

The value of composite z-score measured for the compound CN1C(=O)C2C=CC(C(O)c3ccc(I)cc3)N(N3CCCCC3)C2C1=O (stereo unspecified) turned out to be 1.64

Recorded result, `C=CC[C@@]1(C(=O)N(C)C)N=C(c2ccc(OCCCO)cc2)O[C@@H]1c1ccccc1N=[N+]=[N-]` , composite z-score: 2.66

Lab note: `C=CCOC(=O)[C@H]1[C@@H]2C(=O)O[C@@H](c3ccccc3)[C@@H](c3ccccc3)N2[C@@H](c2ccc(OCCOC(=O)[C@@H]3C[C@@H]4C(=O)N5CCC[C@H]5C(=O)N4[C@@H]3c3cccc(OCCO)c3)cc2)[C@]12C(=O)Nc1ccccc12` gave composite z-score of 0.551

The compound identified as `COC(=O)[C@@]1(Cc2ccccc2)[C@H]2c3cc(C(=O)N4CCCC4)n(Cc4nc5ccccc5[nH]4)c3C[C@H]2CN1C(=O)c1ccccc1` registered its composite z-score at 2.55

Consider `COCCOC(=O)N1C(=O)[C@@]2(c3cc(C#CCCO)ccc31)[C@H](c1ccc(OCCO)cc1)N1[C@H](c3ccccc3)[C@H](c3ccccc3)OC(=O)[C@H]1[C@@H]2C(=O)N1CCN(c2ncccn2)CC1` . Its measured composite z-score is 1.33

Briefly, composite z-score measured for `C=CCN1C(=O)[C@]2(O[C@H](CCO)[C@@H]([Si](C)(C)c3ccc(OC)cc3)[C@@H]2C)c2cc(N3CCCCC3=O)ccc21` : 0.856
